# credit: ChEMBL document CHEMBL4138061

# ASSAYED SYSTEM: Prostaglandin G/H synthase 2 (Homo sapiens)
# TEST PROTOCOL: Inhibition of COX2 in human lympho-monocytes suspension assessed as reduction in LPS-induced PGE2 production pre-incubated for 30 mins before LPS stimulation for 24 hrs by EIA method
# Assay type: cell-based
READOUT LABEL: IC50 (nM)
Report as a plain number; the unit nM is understood.

Output IC50 of "Cc1ccc(Nc2c(F)cccc2Cl)c(Cc2nnn[nH]2)c1"
14

---

# ASSAYED SYSTEM: Prostaglandin G/H synthase 2 (Homo sapiens, UniProt P35354)
# Sequence (P35354 whole entry): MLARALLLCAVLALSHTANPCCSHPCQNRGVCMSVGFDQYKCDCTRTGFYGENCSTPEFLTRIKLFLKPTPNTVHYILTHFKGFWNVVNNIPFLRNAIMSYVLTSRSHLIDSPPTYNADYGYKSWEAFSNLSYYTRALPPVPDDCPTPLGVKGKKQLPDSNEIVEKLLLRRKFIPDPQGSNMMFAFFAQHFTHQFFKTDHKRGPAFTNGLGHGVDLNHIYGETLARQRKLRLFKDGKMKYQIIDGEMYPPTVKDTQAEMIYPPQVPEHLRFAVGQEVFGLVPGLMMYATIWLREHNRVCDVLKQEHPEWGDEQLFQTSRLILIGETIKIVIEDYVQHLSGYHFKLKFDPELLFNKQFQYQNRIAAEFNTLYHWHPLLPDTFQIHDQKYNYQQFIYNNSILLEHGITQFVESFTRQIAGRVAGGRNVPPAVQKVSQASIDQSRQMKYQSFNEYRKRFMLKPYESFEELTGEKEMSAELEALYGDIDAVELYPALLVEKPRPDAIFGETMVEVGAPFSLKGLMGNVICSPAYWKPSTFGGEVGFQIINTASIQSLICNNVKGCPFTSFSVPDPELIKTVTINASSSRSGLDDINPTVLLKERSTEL
# TEST PROTOCOL: Inhibition of human COX2 by fluorescence based assay
READOUT LABEL: pIC50
The scale used: pIC50 is minus the common logarithm of the concentration in molar units.

Output pIC50 of "Cc1ccc(-c2c(-c3ccc(S(C)(=O)=O)cc3)c3cccc4ccn2c43)cc1"
7.70

---

# ASSAYED SYSTEM: Prostaglandin G/H synthase 1 (Ovis aries, UniProt P05979)
# Sequence (P05979 whole entry): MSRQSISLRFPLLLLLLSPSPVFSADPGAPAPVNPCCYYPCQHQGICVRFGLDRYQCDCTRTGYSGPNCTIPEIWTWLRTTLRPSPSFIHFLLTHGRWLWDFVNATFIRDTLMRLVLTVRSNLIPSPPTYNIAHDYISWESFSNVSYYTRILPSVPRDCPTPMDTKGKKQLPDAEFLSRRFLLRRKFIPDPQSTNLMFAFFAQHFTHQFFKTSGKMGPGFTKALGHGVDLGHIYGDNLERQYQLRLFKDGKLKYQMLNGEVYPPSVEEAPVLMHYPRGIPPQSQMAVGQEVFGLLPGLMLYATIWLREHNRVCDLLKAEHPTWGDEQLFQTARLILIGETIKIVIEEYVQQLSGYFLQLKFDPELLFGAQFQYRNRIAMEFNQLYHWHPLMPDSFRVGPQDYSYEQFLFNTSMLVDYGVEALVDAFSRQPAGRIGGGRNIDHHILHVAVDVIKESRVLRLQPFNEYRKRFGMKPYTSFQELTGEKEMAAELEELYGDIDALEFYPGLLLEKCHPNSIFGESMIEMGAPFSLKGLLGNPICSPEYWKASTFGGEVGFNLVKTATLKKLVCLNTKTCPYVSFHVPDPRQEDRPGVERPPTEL
# TEST PROTOCOL: Inhibition of ovine recombinant COX1 by enzyme immuno assay
READOUT LABEL: IC50 (µM)
Report as a plain number; the unit µM is understood.

Output IC50 of "CCOc1ccc(-c2cc(-c3ccc(C(F)(F)F)cc3)n(-c3ccc(S(C)(=O)=O)cc3)n2)cc1"
5.6

---

# ASSAYED SYSTEM: Prostaglandin G/H synthase 1 (Homo sapiens, UniProt P23219)
# Sequence (P23219 whole entry): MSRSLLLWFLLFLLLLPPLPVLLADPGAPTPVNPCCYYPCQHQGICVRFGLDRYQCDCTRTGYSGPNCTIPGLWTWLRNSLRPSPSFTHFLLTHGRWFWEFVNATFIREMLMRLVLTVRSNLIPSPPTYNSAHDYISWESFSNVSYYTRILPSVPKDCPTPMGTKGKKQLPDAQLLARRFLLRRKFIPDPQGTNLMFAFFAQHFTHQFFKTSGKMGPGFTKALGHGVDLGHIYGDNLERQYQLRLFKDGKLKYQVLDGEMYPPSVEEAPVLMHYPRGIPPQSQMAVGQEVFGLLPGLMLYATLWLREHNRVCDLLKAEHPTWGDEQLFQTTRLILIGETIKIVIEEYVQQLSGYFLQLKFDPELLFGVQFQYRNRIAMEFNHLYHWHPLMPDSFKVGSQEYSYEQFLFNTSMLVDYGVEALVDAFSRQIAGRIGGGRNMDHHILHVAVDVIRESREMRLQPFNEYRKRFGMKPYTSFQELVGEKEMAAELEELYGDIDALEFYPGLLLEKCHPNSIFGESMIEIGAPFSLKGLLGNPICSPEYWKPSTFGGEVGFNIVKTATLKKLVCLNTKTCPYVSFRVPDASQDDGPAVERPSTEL
# TEST PROTOCOL: Inhibition of human COX1 assessed as reduction in PGE2 production incubated for 2 mins using arachidonic acid substrate by enzyme immuno assay
READOUT LABEL: IC50 (µM)
Report as a plain number; the unit µM is understood.

Output IC50 of NS(=O)(=O)c1ccc(N2N=C(c3ccc(N4CCOCC4)cc3)CC2c2ccc(F)cc2F)cc1 (stereo unspecified)
36.1

---

# ASSAYED SYSTEM: Prostaglandin G/H synthase 1 (Ovis aries)
# TEST PROTOCOL: Inhibition of ovine COX1 by fluorescence based assay
READOUT LABEL: IC50

Quote Prostaglandin G/H synthase 1 (Ovis aries) IC50 for entry "Cc1ccc(-c2c(-c3ccc(S(C)(=O)=O)cc3)c3cccc4ccn2c43)cc1" .
> 100 µM

---

# ASSAYED SYSTEM: Prostaglandin G/H synthase 2 (Homo sapiens, UniProt P35354)
# TEST PROTOCOL: Inhibition of human recombinant COX2 assessed as reduction in […] production incubated for 10 mins using arachidonic acid substrate by enzyme immuno assay
READOUT LABEL: pIC50
The scale used: pIC50 is minus the common logarithm of the concentration in molar units.

Output pIC50 of CS(=O)(=O)c1ccc(C2NN=C(c3ccc([N+](=O)[O-])cc3)O2)cc1 (stereo unspecified)
6.32
